system: HeLa cells; test: [3H]Adenosine uptake functional cellular assay; format: cell-based; conditions: Homo sapiens, HeLa, accumulation of [3H]adenosine into HeLa cells; compound range 10 μM to […]; read-out: Adenosine uptake inhibition IC50
assay-metric: IC50 (nM)

[P] CCOc1cc(C(=O)Nc2cc(C(F)(F)F)n(C)n2)c(F)cc1-c1nc([C@@H]2CC[C@H]3CCC(=O)N3C2)n2ccnc(N)c12 [Example 152]
[Q] CC(C)Oc1cc(C(=O)Nc2cc(C(F)(F)F)ccn2)ccc1-c1nc([C@@H]2CC[C@H]3CCC(=O)N3C2)n2ccnc(N)c12 [Example 139]
Prompt line: // compare: P vs Q , metric IC50, want the smaller Answer by stating the label of the chosen item.
Response line: Q

[1] COc1cc(C(=O)Nc2cc(C(F)(F)F)ccn2)ccc1-c1nc([C@@H]2CC[C@H]3CCC(=O)N3C2)n2c(C(F)(F)F)cnc(N)c12 [Example 213]
[2] C[C@@H]1OC(=O)N2C[C@H](c3nc(-c4ccc(C(=O)Nc5cc(C(F)(F)F)ccn5)cc4)c4c(N)nccn34)CC[C@@H]12 [Example 48]
Prompt line: Could you point out whether the larger IC50 belongs to 1 or to 2 ? Identify your selection by its label.
Response line: 1

[A] CC(F)(F)Oc1cc(C(=O)Nc2cc(C(F)(F)F)ccn2)ccc1-c1nc([C@@H]2CC[C@H]3CCC(=O)N3C2)n2c(Cl)cnc(N)c12 [Example 216]
[B] Nc1nccn2c([C@@H]3CC[C@H]4CCC(=O)N4C3)nc(-c3cc(F)c(C(=O)Nc4cc(C(F)(F)F)ccn4)cc3Cl)c12 [Example 193]
Prompt line: Which entry shows the lesser value of IC50 here, A or B ? When you have decided, please share the label of that item.
Response line: B

----------
tested on: HeLa cells; experiment: [3H]Adenosine uptake functional cellular assay; assay type: cell-based; settings: Homo sapiens, HeLa, accumulation of [3H]adenosine into HeLa cells; compound range 10 μM to […]; read-out: Adenosine uptake inhibition IC50
assay-metric: IC50 (nM)

Nc1nccn2c([C@H]3CN4C(=O)CC[C@@H]4CO3)nc(-c3ccc(C(=O)Nc4cc(C(F)(F)F)ccn4)cc3)c12 | 206
Nc1ncc(C(F)(F)F)n2c([C@@H]3CC[C@H]4CCC(=O)N4C3)nc(-c3ccc(C(=O)Nc4cc(C(F)(F)F)ccn4)cc3Cl)c12 | 269
Nc1nccn2c([C@@H]3CC[C@H]4CCC(=O)N4C3)nc(-c3ccc(C(=O)Nc4cc(C(F)(F)F)ccn4)cc3Cl)c12 | 415

[A] COc1ccnc(NC(=O)c2ccc(-c3nc([C@@H]4CC[C@H]5CCC(=O)N5C4)n4c(Cl)cnc(N)c34)c(OC)c2)c1
[B] Nc1nccn2c([C@@H]3CC[C@H]4CCOC(=O)N4C3)nc(-c3ccc(C(=O)Nc4cc(C(F)(F)F)ccn4)cc3)c12
Prompt line: Of A and B , which one carries the higher reported IC50? Please indicate the selected item by its label.
Response line: A
(A: 386 nM, B: 64.6 nM)

[A] Nc1nccn2c([C@@H]3CC[C@H]4CN(CC(=O)O)CC(=O)N4C3)nc(-c3ccc(C(=O)Nc4cc(C(F)(F)F)ccn4)cc3)c12
[B] CN1CC(=O)N2C[C@@H](c3nc(-c4ccc(C(=O)Nc5cc(C(F)(F)F)ccn5)cc4)c4c(N)nccn34)CC[C@@H]2C1
[C] COc1cc(C(=O)Nc2cc(C(F)(F)F)ccn2)ccc1-c1nc([C@H]2CN3C(=O)CC[C@@H]3CO2)n2ccnc(N)c12
Prompt line: Let's sort these by IC50, smallest first. Go ahead? Form entry: labels listed in requested order.
Response line: B, C, A
(B: 188 nM, C: 639 nM, A: 2880 nM)

[1] Nc1nccn2c([C@@H]3CC[C@H]4CCC(=O)N4C3)nc(-c3ccc(C(=O)Nc4nccc(C(F)(F)F)n4)cc3)c12
[2] COc1cc(C(=O)Nc2cc(C(F)(F)F)ccn2)cc(F)c1-c1nc([C@@H]2CC[C@H]3CC(C)(C)C(=O)N3C2)n2ccnc(N)c12
Prompt line: Which gives the smaller IC50 number: 1 or 2 ? Pick one and reply with its label.
Response line: 2
(2: 726 nM, 1: 2380 nM)

[I] CCOc1cc(C(=O)Nc2cc(C(F)(F)F)n(C)n2)ccc1-c1nc([C@@H]2CC[C@H]3CCC(=O)N3C2)n2c(F)cnc(N)c12
[II] Cn1nc(NC(=O)c2cc(Cl)c(-c3nc([C@@H]4CC[C@H]5CCC(=O)N5C4)n4c(Cl)cnc(N)c34)cc2F)cc1C(F)(F)F
Prompt line: Which of the two gives a bigger number for IC50: I or II ? // output: label of the selected item
Response line: I
